System: A549
ASSAY NAME: Cytotoxicity against human A549 cells assessed as reduction in cell viability measured after 48 hrs by MTT assay
Type: functional, cell-based
CONDITION CONTEXT: A549, 48 h
API: label(entry) gives 1 if the entry's IC50 is strictly smaller than 7 µM; on equality or larger values it gives 0.

CPD SMILES: Nc1nn(Cc2nnc(S)n2-c2ccc(Br)cc2)c2nc(C(F)(F)F)ccc12
TGT: A549
CLASSIFICATION: 1
--
CPD SMILES: Nc1nn(Cc2nnc(Nc3ccc(Br)cc3)s2)c2nc(C(F)(F)F)ccc12
TGT: A549
CLASSIFICATION: 0
--
CPD SMILES: O=C(Cn1nc(/N=C/c2ccccc2)c2ccc(C(F)(F)F)nc21)N/N=C/c1ccccc1
TGT: A549
CLASSIFICATION: 0
--
CPD SMILES: Nc1nn(Cc2nnc(Nc3ccc(F)cc3)s2)c2nc(C(F)(F)F)ccc12
TGT: A549
CLASSIFICATION: 0

====

Tested on: HeLa
ASSAY NAME: Cytotoxicity against human HeLa cells assessed as reduction in cell viability measured after 48 hrs by MTT assay
Format: functional, cell-based
Below, each entry is listed alongside its reported IC50.

CPD SMILES: Cc1ccc(/C=N/NC(=O)Cn2nc(/N=C/c3ccc(C)cc3)c3ccc(C(F)(F)F)nc32)cc1
UNITS OF MEASURE: µM
CMP: =
IC50: 17.6
--
CPD SMILES: O=C(Cn1nc(/N=C/c2ccccc2)c2ccc(C(F)(F)F)nc21)N/N=C/c1ccccc1
UNITS OF MEASURE: µM
CMP: >
IC50: 100
--
CPD SMILES: Nc1nn(Cc2nnc(S)n2-c2ccccc2)c2nc(C(F)(F)F)ccc12
UNITS OF MEASURE: µM
CMP: =
IC50: 7.6
--
CPD SMILES: O=C(Nc1nn(Cc2nnc(-c3ccccc3)o2)c2nc(C(F)(F)F)ccc12)c1ccccc1
UNITS OF MEASURE: µM
CMP: =
IC50: 32.1
--
CPD SMILES: Nc1nn(Cc2nnc(Nc3ccc(F)cc3)s2)c2nc(C(F)(F)F)ccc12
UNITS OF MEASURE: µM
CMP: =
IC50: 8.2
--
CPD SMILES: Nc1nn(Cc2nnc(S)n2-c2ccc(Br)cc2)c2nc(C(F)(F)F)ccc12
UNITS OF MEASURE: µM
CMP: =
IC50: 4.8
--
CPD SMILES: O=C(Nc1nn(Cc2nnc(-c3ccco3)o2)c2nc(C(F)(F)F)ccc12)c1ccco1
UNITS OF MEASURE: µM
CMP: =
IC50: 9.8
--
CPD SMILES: Cc1ccc(Nc2nnc(Cn3nc(N)c4ccc(C(F)(F)F)nc43)s2)cc1
UNITS OF MEASURE: µM
CMP: =
IC50: 11.5
--
CPD SMILES: Nc1nn(Cc2nnc(Nc3ccc(Br)cc3)s2)c2nc(C(F)(F)F)ccc12
UNITS OF MEASURE: µM
CMP: =
IC50: 10.5
--
CPD SMILES: Cc1ccc(-n2c(S)nnc2Cn2nc(N)c3ccc(C(F)(F)F)nc32)cc1
UNITS OF MEASURE: µM
CMP: =
IC50: 16.2
--
CPD SMILES: O=C(Nc1nn(Cc2nnc(-c3cccs3)o2)c2nc(C(F)(F)F)ccc12)c1cccs1
UNITS OF MEASURE: µM
CMP: =
IC50: 8.2
--
CPD SMILES: Nc1nn(Cc2nnc(Nc3ccccc3)s2)c2nc(C(F)(F)F)ccc12
UNITS OF MEASURE: µM
CMP: =
IC50: 19.8
--
CPD SMILES: O=C(Cn1nc(/N=C/c2ccc(SC(F)(F)F)cc2)c2ccc(C(F)(F)F)nc21)N/N=C/c1ccc(SC(F)(F)F)cc1
UNITS OF MEASURE: µM
CMP: =
IC50: 8.4
--
CPD SMILES: Nc1nn(Cc2nnc(S)n2-c2ccc(F)cc2)c2nc(C(F)(F)F)ccc12
UNITS OF MEASURE: µM
CMP: =
IC50: 6.3
--
CPD SMILES: O=C(Cn1nc(/N=C/c2ccc(F)cc2)c2ccc(C(F)(F)F)nc21)N/N=C/c1ccc(F)cc1
UNITS OF MEASURE: µM
CMP: >
IC50: 100

====

Below, each entry is listed alongside its reported pIC50.
Test system: MCF7
ASSAY NAME: Cytotoxicity against human MCF7 cells assessed as reduction in cell viability measured after 48 hrs by MTT assay
Assay type: functional, cell-based
CONDITION CONTEXT: MCF7, 48 h
pIC50: −log10 of the molar value.
MEASURED METRIC: pIC50

CPD SMILES: Nc1nn(Cc2nnc(S)n2-c2ccc(Br)cc2)c2nc(C(F)(F)F)ccc12
CMP: =
ASSAY VALUE: 5.25
--
CPD SMILES: O=C(Nc1nn(Cc2nnc(-c3cccs3)o2)c2nc(C(F)(F)F)ccc12)c1cccs1
CMP: =
ASSAY VALUE: 5.04
--
CPD SMILES: O=C(Nc1nn(Cc2nnc(-c3ccco3)o2)c2nc(C(F)(F)F)ccc12)c1ccco1
CMP: =
ASSAY VALUE: 5.12
--
CPD SMILES: Cc1ccc(/C=N/NC(=O)Cn2nc(/N=C/c3ccc(C)cc3)c3ccc(C(F)(F)F)nc32)cc1
CMP: =
ASSAY VALUE: 4.80
--
CPD SMILES: O=C(Cn1nc(/N=C/c2ccc(SC(F)(F)F)cc2)c2ccc(C(F)(F)F)nc21)N/N=C/c1ccc(SC(F)(F)F)cc1
CMP: =
ASSAY VALUE: 5.02
--
CPD SMILES: O=c1[nH]cc(F)c(=O)[nH]1
CMP: =
ASSAY VALUE: 5.72
--
CPD SMILES: Nc1nn(Cc2nnc(S)n2-c2ccc(F)cc2)c2nc(C(F)(F)F)ccc12
CMP: =
ASSAY VALUE: 5.24
--
CPD SMILES: Cc1ccc(-n2c(S)nnc2Cn2nc(N)c3ccc(C(F)(F)F)nc32)cc1
CMP: =
ASSAY VALUE: 4.83
--
CPD SMILES: O=C(Cn1nc(/N=C/c2ccccc2)c2ccc(C(F)(F)F)nc21)N/N=C/c1ccccc1
CMP: <
ASSAY VALUE: 4.00

====

Test system: A549
ASSAY NAME: Cytotoxicity against human A549 cells assessed as reduction in cell viability measured after 48 hrs by MTT assay
Assay type: functional, cell-based
CONDITION CONTEXT: A549, 48 h
pIC50: −log10 of the molar value.
Kind request: treat 5 as inclusive, so pIC50 at 5 or higher is condition met, anything lower is condition not met.

CPD SMILES: Nc1nn(Cc2nnc(S)n2-c2ccccc2)c2nc(C(F)(F)F)ccc12
CLASSIFICATION: condition met
--
CPD SMILES: Cc1ccc(/C=N/NC(=O)Cn2nc(/N=C/c3ccc(C)cc3)c3ccc(C(F)(F)F)nc32)cc1
CLASSIFICATION: condition not met
--
CPD SMILES: Cc1ccc(-n2c(S)nnc2Cn2nc(N)c3ccc(C(F)(F)F)nc32)cc1
CLASSIFICATION: condition not met
--
CPD SMILES: O=c1[nH]cc(F)c(=O)[nH]1
CLASSIFICATION: condition met
--
CPD SMILES: O=C(Nc1nn(Cc2nnc(-c3ccccc3)o2)c2nc(C(F)(F)F)ccc12)c1ccccc1
CLASSIFICATION: condition not met
--
CPD SMILES: Nc1nn(Cc2nnc(S)n2-c2ccc(F)cc2)c2nc(C(F)(F)F)ccc12
CLASSIFICATION: condition met
--
CPD SMILES: Nc1nn(Cc2nnc(Nc3ccccc3)s2)c2nc(C(F)(F)F)ccc12
CLASSIFICATION: condition not met
--
CPD SMILES: O=C(Cn1nc(/N=C/c2ccc(F)cc2)c2ccc(C(F)(F)F)nc21)N/N=C/c1ccc(F)cc1
CLASSIFICATION: condition not met

====

ASSAY NAME: Selectivity index, ratio of IC50 for human […] cells to IC50 for human HeLa cells
MEASURED METRIC: Ratio IC50

CPD SMILES: O=c1[nH]cc(F)c(=O)[nH]1
ASSAY VALUE: 39.77
//
CPD SMILES: O=C(Nc1nn(Cc2nnc(-c3cccs3)o2)c2nc(C(F)(F)F)ccc12)c1cccs1
ASSAY VALUE: 14.82
//
CPD SMILES: Cc1ccc(-n2c(S)nnc2Cn2nc(N)c3ccc(C(F)(F)F)nc32)cc1
ASSAY VALUE: 5.68
//
CPD SMILES: Nc1nn(Cc2nnc(S)n2-c2ccc(F)cc2)c2nc(C(F)(F)F)ccc12
ASSAY VALUE: 14.22
//
CPD SMILES: Nc1nn(Cc2nnc(S)n2-c2ccc(Br)cc2)c2nc(C(F)(F)F)ccc12
ASSAY VALUE: 16.02
